# measurement protocol: in vivo
# Design: species or system mice
# condition: mouse, po
measurement label: TD50 at 1 h (mg/kg)
One number for each entry, in mg/kg.

Worked set:
>>> recorded_result("C[C@@H](NC(=O)c1ccc(N)cc1)c1ccccc1 [(R), (R)-4-amino-N-(1-phenylethyl)benzamide]")
480
>>> recorded_result("CC(NC(=O)c1ccc(N)cc1)c1ccccc1 (racemic) [(R,S), (R,S)-4-amino-N-(1-phenylethyl)benzamide]")
105

Continue with the next molecule.
For C[C@H](NC(=O)c1ccc(N)cc1)c1ccccc1 [(S), (S)-4-amino-N-(1-phenylethyl)benzamide] , what is its reported TD50 at 1 h?
141
